Measured IC50 by item
- MEASUREMENT_TARGET: phosphorylated active hERK2 enzyme (Homo sapiens (Human), UniProt P28482)
- Sequence (P28482 whole entry): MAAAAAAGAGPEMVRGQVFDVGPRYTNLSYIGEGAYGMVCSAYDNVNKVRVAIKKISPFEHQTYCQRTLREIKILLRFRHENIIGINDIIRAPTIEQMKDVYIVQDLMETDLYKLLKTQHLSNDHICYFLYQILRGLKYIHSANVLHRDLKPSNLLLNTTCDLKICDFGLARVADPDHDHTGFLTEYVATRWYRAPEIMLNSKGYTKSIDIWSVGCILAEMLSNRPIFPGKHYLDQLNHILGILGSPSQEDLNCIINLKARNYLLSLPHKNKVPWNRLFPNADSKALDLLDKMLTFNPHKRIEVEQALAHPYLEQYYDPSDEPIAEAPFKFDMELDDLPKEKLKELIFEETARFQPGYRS
- ASSAY_METHOD_TEXT: Active Human ERK2 (hERK2) Activity Assay (IMAP-FP)
- Format: biochemical
- TEST_CONDITIONS: Table 6, 0.5 nM hERK2, 30 μM ATP, 10 point titration, read-out: AERK2 IC50

{"COMPOUND": "C[C@@H](NC(=O)Nc1cc2[nH]nc(N3CCC(C#N)CC3)c2cn1)c1ccccc1", "IC50 (nM)": 9.7}
{"COMPOUND": "C[C@@H](NC(=O)Nc1cc2[nH]nc(NC3CCCCC3)c2cn1)c1ccccc1", "IC50 (nM)": 6.8}
{"COMPOUND": "COC[C@@H](NC(=O)Nc1cc2[nH]nc(NC3COC3)c2cn1)c1ccccc1", "IC50 (nM)": 0.5}
{"COMPOUND": "COC1CCN(c2n[nH]c3cc(NC(=O)N[C@H](C)c4ccccc4)ncc23)CC1", "IC50 (nM)": 4.5}
{"COMPOUND": "CC(C)(O)[C@@H](NC(=O)Nc1cc2[nH]nc(N)c2cn1)c1ccccc1", "IC50 (nM)": 14.9}
{"COMPOUND": "C[C@@H](NC(=O)Nc1cc2[nH]nc(NC3CCSC3)c2cn1)c1ccccc1 (some centres unmarked)", "IC50 (nM)": 1.2}
{"COMPOUND": "C[C@@H](NC(=O)Nc1cc2[nH]nc(NC(C)(C)C)c2cn1)c1ccccc1", "IC50 (nM)": 88}
{"COMPOUND": "CC(C)(O)[C@@H](NC(=O)Nc1cc2[nH]nc(N3CCOC(C(F)(F)F)C3)c2cn1)c1ccccc1 (some centres unmarked)", "IC50 (nM)": 0.6}
